test system: A431 cells of skin cancer; assay: transwell migration test; assay type: cell-based, human; conditions: dose 4 μM, 24 h
No end group written: not given here.
READOUT_LABEL: migration inhibition rate (%)
The reply should contain only the number, in %.

INSERT INTO results (substance, readout_label, data_value) VALUES
  ('MERAGVPGFSPRRSSVEAKMQSTSCSVRKSSTVTAWPAVVLLLHTSKDDEE-OH [HMMW-II]', 'migration inhibition rate', 53.12),
  ('MGSTGVPGFSPRRSSVEAKMQSTSCSVRKSSTVTAWPAVVLLLSWGQRRGG-OH [HMMW-VII]', 'migration inhibition rate', 52.22),
  ('MERAGVPGFSPRRSSVEAKMQSTSCSVRKSSTVTAWPAVVLLLSWGQRDEE-OH [HMMW-VI]', 'migration inhibition rate', 55.17);

Item: MERAGVPGFSPRRSSVEAKMQSTSCSVRKSSTVTAWPAVVLLLSWGKDDEE-OH [HMMW-IV] | migration inhibition rate: 54.17

###

tested on: UOK262 cells of kidney cancer; assay: transwell migration test; type: cell-based, human; settings: dose 1 μM, 24 h
No end group written: not given here.
READOUT_LABEL: migration inhibition rate (%)
The reply should contain only the number, in %.

Guide cases for migration inhibition rate, answers given:
INSERT INTO measurements (substance, readout_label, value_units, data_value) VALUES
  ('MGSTGVPGFSPRRSSVEAKMQSTSCSVRKSSTVTAWPAVVLLLSWGQRRGG-OH [HMMW-VII]', 'migration inhibition rate', '%', 19.24),
  ('MERAGVPGFSPRRSSVEAKMQSTSCSVRKSSTVTAWPAVVLLLSWGQRRGG-OH [HMMW-I]', 'migration inhibition rate', '%', 15.39);

Item: MGSTYNKRHSPRRSSVEAKMQSTSCSVRKSSTVTAWPAVVLLLSWGQRRGG-OH [HMMW-III] | migration inhibition rate: 16.39

Item: MGRAGVPGFSPRRSSVEAKMQSTSCSVRKSSTVTAWPAVVLLLSWGQRRGG-OH [HMMW-IX] | migration inhibition rate: 17.39

Item: MERAGVPGFSPRRSSVEAKMQSTSCSVRKSSTVTAWPAVVLLLSWGQRDEE-OH [HMMW-VI] | migration inhibition rate: 17.32

Item: MERAGVPGFSPRRSSVEAKMQSTSCSVRKSSTVTAWPAVVLLLSWGQRRGE-OH [HMMW-VIII] | migration inhibition rate: 18.29

Item: MGSTYNPGFSPRRSSVEAKMQSTSCSVRKSSTVTAWPAVVLLLSWGQRRGG-OH [HMMW-V] | migration inhibition rate: 18.29

Item: MERAGVPGFSPRRSSVEAKMQSTSCSVRKSSTVTAWPAVVLLLSWGKDDEE-OH [HMMW-IV] | migration inhibition rate: 16.32

Item: MERAGVPGFSPRRSSVEAKMQSTSCSVRKSSTVTAWPAVVLLLHTSKDDEE-OH [HMMW-II] | migration inhibition rate: 16.29

###

system: SW579 cells of thyroid cancer; assay: transwell migration test; format: cell-based, human; settings: dose 1 μM, 24 h
No end group written: not given here.
Quick list: migration inhibition rate per entry.
Respond with the figure and its unit, in that order.

Guide cases for migration inhibition rate, answers given:
INSERT INTO assay_data (substance, readout_label, data_value) VALUES
  ('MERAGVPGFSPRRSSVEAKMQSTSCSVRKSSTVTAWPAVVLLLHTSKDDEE-OH [HMMW-II]', 'migration inhibition rate', '18.80%'),
  ('MGSTYNKRHSPRRSSVEAKMQSTSCSVRKSSTVTAWPAVVLLLSWGQRRGG-OH [HMMW-III]', 'migration inhibition rate', '18.83%'),
  ('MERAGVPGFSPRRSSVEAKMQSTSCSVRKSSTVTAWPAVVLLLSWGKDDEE-OH [HMMW-IV]', 'migration inhibition rate', '18.81%'),
  ('MGSTYNPGFSPRRSSVEAKMQSTSCSVRKSSTVTAWPAVVLLLSWGQRRGG-OH [HMMW-V]', 'migration inhibition rate', '17.45%'),
  ('MERAGVPGFSPRRSSVEAKMQSTSCSVRKSSTVTAWPAVVLLLSWGQRRGE-OH [HMMW-VIII]', 'migration inhibition rate', '18.81%'),
  ('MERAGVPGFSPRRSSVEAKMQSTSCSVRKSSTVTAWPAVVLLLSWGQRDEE-OH [HMMW-VI]', 'migration inhibition rate', '19.81%'),
  ('MGRAGVPGFSPRRSSVEAKMQSTSCSVRKSSTVTAWPAVVLLLSWGQRRGG-OH [HMMW-IX]', 'migration inhibition rate', '17.81%'),
  ('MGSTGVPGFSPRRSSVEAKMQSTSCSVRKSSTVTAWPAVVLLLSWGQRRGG-OH [HMMW-VII]', 'migration inhibition rate', '20.80%');

Please examine the following record next.
Item: MERAGVPGFSPRRSSVEAKMQSTSCSVRKSSTVTAWPAVVLLLSWGQRRGG-OH [HMMW-I] | migration inhibition rate: 19.81%

###

Quick list: invasion inhibition rate per entry.
System: UOK262 cells of kidney cancer
Test: Matrigel transwell invasion test
Assay type: cell-based, human
Settings: dose 1 μM, 24 h
Protocol: Dilute 10 mg/mL Matrigel with culture medium at 1:3, spread it on membranes of transwell cells and dry it in the air at room temperature. […] [formula] where Ntest is the number of invaded cells in the test groups (the groups at a dose of 1, 4 or 16 μM in the table), Ncontrol is the number of invaded cells in the blank control groups (the groups at a dose of 0 μM in the table). […] Mean±SD was calculated based on the test results. […]
No end group written: not given here.
The reply should contain only the number, in %.

Guide cases for invasion inhibition rate, answers given:
INSERT INTO assay_data (substance, data_value) VALUES
  ('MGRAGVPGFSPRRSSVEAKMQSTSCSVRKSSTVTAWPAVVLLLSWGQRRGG-OH [HMMW-IX]', 39.15),
  ('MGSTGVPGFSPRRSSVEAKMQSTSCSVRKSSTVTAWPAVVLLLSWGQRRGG-OH [HMMW-VII]', 36.74);

Entry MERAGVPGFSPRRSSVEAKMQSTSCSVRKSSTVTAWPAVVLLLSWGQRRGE-OH [HMMW-VIII] ; assay system UOK262 cells of kidney cancer; invasion inhibition rate recorded at 35.27

Entry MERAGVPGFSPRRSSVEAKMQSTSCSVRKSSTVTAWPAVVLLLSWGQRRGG-OH [HMMW-I] ; assay system UOK262 cells of kidney cancer; invasion inhibition rate recorded at 33.80

Entry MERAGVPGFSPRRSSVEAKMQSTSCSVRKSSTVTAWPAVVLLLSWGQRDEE-OH [HMMW-VI] ; assay system UOK262 cells of kidney cancer; invasion inhibition rate recorded at 38.15

Entry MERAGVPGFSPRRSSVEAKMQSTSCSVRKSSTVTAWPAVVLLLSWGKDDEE-OH [HMMW-IV] ; assay system UOK262 cells of kidney cancer; invasion inhibition rate recorded at 38.40

Entry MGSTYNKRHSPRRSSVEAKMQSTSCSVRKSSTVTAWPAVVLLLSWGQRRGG-OH [HMMW-III] ; assay system UOK262 cells of kidney cancer; invasion inhibition rate recorded at 34.37

Entry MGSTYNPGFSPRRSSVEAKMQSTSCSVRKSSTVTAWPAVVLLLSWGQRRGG-OH [HMMW-V] ; assay system UOK262 cells of kidney cancer; invasion inhibition rate recorded at 33.43

Entry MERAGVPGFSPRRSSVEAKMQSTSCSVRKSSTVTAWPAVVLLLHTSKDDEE-OH [HMMW-II] ; assay system UOK262 cells of kidney cancer; invasion inhibition rate recorded at 34.70

###

Quick list: invasion inhibition rate per entry.
system: TE13 cells of esophageal squamous cell carcinoma; test: Matrigel transwell invasion test; assay type: cell-based, human; settings: dose 16 μM, 24 h
No end group written: not given here.
The reply should contain only the number, in %.

INSERT INTO assay_data (substance, data_value) VALUES
  ('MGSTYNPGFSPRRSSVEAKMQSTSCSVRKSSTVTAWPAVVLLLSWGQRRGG-OH [HMMW-V]', 66.69);

Item: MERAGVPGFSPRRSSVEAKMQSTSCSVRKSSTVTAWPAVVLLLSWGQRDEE-OH [HMMW-VI] | invasion inhibition rate: 67.47

Item: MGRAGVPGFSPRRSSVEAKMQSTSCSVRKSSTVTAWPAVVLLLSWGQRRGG-OH [HMMW-IX] | invasion inhibition rate: 65.47

Item: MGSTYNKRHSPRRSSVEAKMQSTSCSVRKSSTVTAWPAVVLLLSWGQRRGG-OH [HMMW-III] | invasion inhibition rate: 63.31

Item: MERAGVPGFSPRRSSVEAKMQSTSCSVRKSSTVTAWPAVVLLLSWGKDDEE-OH [HMMW-IV] | invasion inhibition rate: 67.51

Item: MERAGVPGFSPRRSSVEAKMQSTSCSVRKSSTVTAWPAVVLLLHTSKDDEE-OH [HMMW-II] | invasion inhibition rate: 64.56

Item: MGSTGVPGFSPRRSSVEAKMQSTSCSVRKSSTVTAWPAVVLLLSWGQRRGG-OH [HMMW-VII] | invasion inhibition rate: 67.52

Item: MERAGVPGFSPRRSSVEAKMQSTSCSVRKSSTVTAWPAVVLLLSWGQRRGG-OH [HMMW-I] | invasion inhibition rate: 66.51

Item: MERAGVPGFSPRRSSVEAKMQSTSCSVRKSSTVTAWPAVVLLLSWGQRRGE-OH [HMMW-VIII] | invasion inhibition rate: 61.51
